Recorded values, source patent US6376510B1.

Please provide measured Onset for the entries that follow.
# Test system: anesthetized rats (evoked responses of anterior tibial muscle)
# assay_name: In vivo neuromuscular block and cardiovascular side effects, anesthetized rat (Example 8, Table 3)
# experimental_context: rat; time to 80-85% neuromuscular block
One number for each entry, in min.

Reference set, count: 4
CC(=O)Oc1ccc(C[N+]2(C)[C@@H]3CC[C@H]2C[C@@H](OC(=O)CCCC(=O)O[C@H]2C[C@H]4CC[C@@H](C2)[N+]4(C)Cc2ccc(OC(C)=O)c(OC(C)=O)c2)C3)cc1OC(C)=O.[Br-].[Br-] (some centres unmarked) ... 0.75
CC(=O)Oc1ccc(C[N+]2(C)C3CCCC2CC(OC(=O)CCCCCC(=O)OC2CC4CCCC(C2)[N+]4(C)Cc2ccc(OC(C)=O)c(OC(C)=O)c2)C3)cc1OC(C)=O.[Br-].[Br-] (centres unmarked) ... 0.45
COc1cc2c(cc1OC)[C@@H](Cc1cc(OC)c(OC)c(OC)c1)[N+](C)(CCCOC(=O)CC/C=C/CCC(=O)OCCC[N+]1(C)CCc3cc(OC)c(OC)cc3[C@H]1Cc1cc(OC)c(OC)c(OC)c1)CC2 (some centres unmarked) [Mivacurium, reference compound] ... 1.8
COc1cc(C[N+]2(C)[C@@H]3CC[C@H]2C[C@@H](OC(=O)C2CCC2C(=O)O[C@H]2C[C@H]4CC[C@@H](C2)[N+]4(C)Cc2ccc(OC(C)=O)c(OC)c2)C3)ccc1OC(C)=O.[Br-].[Br-] (some centres unmarked) ... 0.6

Would you kindly look at the next entry?
input: # input molecule: CCC(=O)Oc1ccc(C[N+]2(C)C3CCCC2CC(OC(=O)C2CCC2C(=O)OC2CC4CCCC(C2)[N+]4(C)Cc2ccc(OC(=O)CC)c(OC(=O)CC)c2)C3)cc1OC(=O)CC.[Br-].[Br-] (centres unmarked) ; wanted: its Onset
output: 0.45

###

# System: anesthetized juvenile pigs
# assay_name: animal or person
# Type: in vivo
# experimental_context: pig; at 80-85% neuromuscular blocking dose
# Source text: Both electromyographic and mechanomyographic responses can be quantified. The techniques described under a) and b) were employed in other species as needed with the modification that juvenile pigs were initially anesthetized with inhalation of halothane (Table 5) and monkeys were initially sedated with intramuscular ketamine injections prior to inducing and maintaining general anesthesia using pentobarbital and propofol administered intravenously (Table 6).
metric: VB (vagal block)
A complete answer gives the number and then names the unit.

COc1cc(C[N+]2(C)[C@@H]3CC[C@H]2C[C@@H](OC(=O)CCCCCCCCCC(=O)O[C@H]2C[C@H]4CC[C@@H](C2)[N+]4(C)Cc2cc(OC)c(OC(C)=O)c(OC)c2)C3)cc(OC)c1OC(C)=O.[Br-].[Br-] (stereo partly drawn) ... 90%
CCC(=O)Oc1ccc(C[N+]2(C)[C@@H]3CC[C@H]2C[C@@H](OC(=O)CCCC(=O)O[C@H]2C[C@H]4CC[C@@H](C2)[N+]4(C)Cc2ccc(OC(=O)CC)c(OC(=O)CC)c2)C3)cc1OC(=O)CC.[Br-].[Br-] (stereo partly drawn) ... 70%

Would you kindly look at the next entry?
input: Give anesthetized juvenile pigs VB (vagal block) for COc1cc(C[N+]2(C)[C@@H]3CC[C@H]2C[C@@H](OC(=O)CCCCCCCCCC(=O)O[C@H]2C[C@H]4CC[C@@H](C2)[N+]4(C)Cc2cc(OC)c(OC)c(OC)c2)C3)cc(OC)c1OC.[Br-].[Br-] (stereo partly drawn)
output: 40%

###

# Tested on: anesthetized rats (evoked responses of anterior tibial muscle)
# assay_name: In vivo neuromuscular block and cardiovascular side effects, anesthetized rat (Example 8, Table 3)
# experimental_context: rat; at 80-85% neuromuscular blocking dose
metric: ΔBP (change in arterial blood pressure)
A complete answer gives the number and then names the unit.

COc1cc(C[N+]2(C)C3CCC2CC(OC(=O)C2C4C=CC(C4)C2C(=O)OC2CC4CCC(C2)[N+]4(C)Cc2cc(OC)c(OC(C)=O)c(OC)c2)C3)cc(OC)c1OC(C)=O.[Br-].[Br-] (centres unmarked) ... 0%

input: # input molecule: CC(=O)Oc1ccc(C[N+]2(C)C3CCC2CC(OC(=O)C2C4C=CC(C4)C2C(=O)OC2CC4CCC(C2)[N+]4(C)Cc2ccc(OC(C)=O)c(OC(C)=O)c2)C3)cc1OC(C)=O.[Br-].[Br-] (stereo not drawn) [bis[N-(3,4-diacetoxybenzyl)tropanium-3α-yl]trans-3,6-endomet] ; wanted: its ΔBP (change in arterial blood pressure)
output: 0%

###

# Tested on: anesthetized cats (evoked responses of anterior tibial muscle)
# assay_name: animal or person
# experimental_context: Felis catus, iv
Please provide measured ED50 for the entries that follow.
Give bare numbers, in mg/kg.

For each listed entry, give its ED50.
1. C=CC[N+]1([C@H]2C[C@H]3[C@@H]4CC[C@H]5C[C@H](O)[C@@H](N6CCOCC6)C[C@]5(C)[C@H]4CC[C@]3(C)[C@H]2OC(C)=O)CCCC1 [Rocuronium, reference compound]
2. C[N+]1(C)[C@@H]2CC[C@H]1C[C@@H](OC(=O)CCCCCCCCC(=O)O[C@H]1C[C@H]3CC[C@@H](C1)[N+]3(C)C)C2.[I-].[I-] [reference compound]
3. CC(=O)Oc1ccc(C[N+]2(C)[C@@H]3CC[C@H]2C[C@@H](OC(=O)C2CCC2C(=O)O[C@H]2C[C@H]4CC[C@@H](C2)[N+]4(C)Cc2ccc(OC(C)=O)c(OC(C)=O)c2)C3)cc1OC(C)=O.[Br-].[Br-] (some centres unmarked)
4. CC(=O)Oc1ccc(C[N+]2(C)[C@@H]3CC[C@H]2C[C@@H](OC(=O)C2CCCC(C(=O)O[C@H]4C[C@H]5CC[C@@H](C4)[N+]5(C)Cc4ccc(OC(C)=O)c(OC(C)=O)c4)C2)C3)cc1OC(C)=O.[Br-].[Br-] (some centres unmarked)

output:
[0.185, 0.125, 0.135, 0.11]

input: # input compound: COc1cc(C[N+]2(C)[C@@H]3CC[C@H]2C[C@@H](OC(=O)C2CCCC(C(=O)O[C@H]4C[C@H]5CC[C@@H](C4)[N+]5(C)Cc4ccc(OC(C)=O)c(OC)c4)C2)C3)ccc1OC(C)=O.[Br-].[Br-] (some centres unmarked) ; wanted: its ED50
output: 0.325

###

# System: anesthetized juvenile pigs
# assay_name: animal or person
# Format: in vivo
# experimental_context: pig, in vivo
VB (vagal block) strictly under 40% means yes; at 40% or over means no.

Worked examples, 2 molecules total:
CCC(=O)Oc1ccc(C[N+]2(C)C3CCCC2CC(OC(=O)CCCC(=O)OC2CC4CCCC(C2)[N+]4(C)Cc2ccc(OC(=O)CC)c(OC(=O)CC)c2)C3)cc1OC(=O)CC.[Br-].[Br-] (centres unmarked) ... yes
CCC(=O)Oc1ccc(C[N+]2(C)C3CCCC2CC(OC(=O)C2CCC2C(=O)OC2CC4CCCC(C2)[N+]4(C)Cc2ccc(OC(=O)CC)c(OC(=O)CC)c2)C3)cc1OC(=O)CC.[Br-].[Br-] (centres unmarked) ... yes

input: Please let me know if CC(=O)Oc1ccc(C[N+]2(C)C3CCC2CC(OC(=O)C2C4C=CC(C4)C2C(=O)OC2CC4CCC(C2)[N+]4(C)Cc2ccc(OC(C)=O)c(OC(C)=O)c2)C3)cc1OC(C)=O.[Br-].[Br-] (stereo not drawn) [bis[N-(3,4-diacetoxybenzyl)tropanium-3α-yl]trans-3,6-endomet] shows VB (vagal block) below 40%.
output: no

input: Also need CC(=O)Oc1ccc(C[N+]2(C)C3CCCC2CC(OC(=O)CCCCC(=O)OC2CC4CCCC(C2)[N+]4(C)Cc2ccc(OC(C)=O)c(OC(C)=O)c2)C3)cc1OC(C)=O.[Br-].[Br-] (centres unmarked) , thanks.
output: no

input: Also need CCC(=O)Oc1ccc(C[N+]2(C)C3CCCC2CC(OC(=O)CCCCC(=O)OC2CC4CCCC(C2)[N+]4(C)Cc2ccc(OC(=O)CC)c(OC(=O)CC)c2)C3)cc1OC(=O)CC.[Br-].[Br-] (centres unmarked) , thanks.
output: no

###

Please provide measured RI (recovery index) for the entries that follow.
# Test system: anesthetized monkeys
# assay_name: In vivo neuromuscular block and cardiovascular side effects, monkey (Example 8, Table 6)
# experimental_context: spontaneous recovery, 25-75% neuromuscular response
Give bare numbers, in min.

For each listed entry, give its RI (recovery index).
1. CC(=O)Oc1ccc(C[N+]2(C)C3CCCC2CC(OC(=O)CCCC(=O)OC2CC4CCCC(C2)[N+]4(C)Cc2ccc(OC(C)=O)c(OC(C)=O)c2)C3)cc1OC(C)=O.[Br-].[Br-] (stereo not shown)
2. COc1cc2c(cc1OC)[C@@H](Cc1cc(OC)c(OC)c(OC)c1)[N+](C)(CCCOC(=O)CC/C=C/CCC(=O)OCCC[N+]1(C)CCc3cc(OC)c(OC)cc3[C@H]1Cc1cc(OC)c(OC)c(OC)c1)CC2 (stereo partly shown) [Mivacurium, reference compound]
3. COc1cc(C[N+]2(C)[C@@H]3CC[C@H]2C[C@@H](OC(=O)C2CCC2C(=O)O[C@H]2C[C@H]4CC[C@@H](C2)[N+]4(C)Cc2ccc(OC(C)=O)c(OC)c2)C3)ccc1OC(C)=O.[Br-].[Br-] (stereo partly shown)
4. CC(=O)Oc1ccc(C[N+]2(C)[C@@H]3CC[C@H]2C[C@@H](OC(=O)CCCC(=O)O[C@H]2C[C@H]4CC[C@@H](C2)[N+]4(C)Cc2ccc(OC(C)=O)c(OC(C)=O)c2)C3)cc1OC(C)=O.[Br-].[Br-] (stereo partly shown)

output:
[0.4, 2.4, 0.5, 0.8]
